# Measurement description: Rat single dose PK study
# Type: in vivo
# Condition summary: Wistar, plasma, po, 1 mg/kg, read-out: Oral Bioavailability F
# Protocol: Rat Single Dose PK Study (Inhibition of CSF Aβ40 in Wistar Rats) The rat single dose PK study was described in H. Hilpert et al., J. Med. Chem. 2013, 56, 3980-3995 (dx.doi.org/10.1021/jm400225m) with slight modifications. Blood is transferred into a labeled EDTA-K2 Eppendorf tube and the sample is mixed by inverting the tubes several times. Blood is stored at −20° C.
# bioavailability per entry
Answer as a quantity: numeral, then unit.

* Cc1cc(C#N)cnc1C(=O)Nc1ccc(F)c([C@@]2(C)N=C(N)O[C@H](C(F)(F)F)[C@@H]2F)n1 | 62%

Now for another entry.
Quick check: bioavailability of C[C@]1(c2nc(NC(=O)c3ccc(C#N)cn3)ccc2F)N=C(N)O[C@H](C(F)(F)F)[C@@H]1F ?
19%

Source: patent US20190055231A1
